# experiment_notes: amyloid nucleation score (Sup35N fusion, yeast selection) (log enrichment); library NNK2; higher = more nucleation; inactive = no reads after selection;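 also: zero at mode of non-aggregating sequences after 7 days selection at 30°C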
Field: amyloid nucleation score. Provide a value for each of the substances that follow.
Enter the number alone.

Query: GET /values?readout=amyloid nucleation score&item= `LDKAIHSWGVLDWAVKQDNA`
Response: 0.293

Query: GET /values?readout=amyloid nucleation score&item= `YIPLVVLHFSVRVWELSYWS`
Response: 0.115

Query: GET /values?readout=amyloid nucleation score&item= `HYYIHSFNMYPVGSRLVPYE`
Response: -0.065

Query: GET /values?readout=amyloid nucleation score&item= `ITTSSSWCATILSPQFFKDV`
Response: -0.569

Query: GET /values?readout=amyloid nucleation score&item= `IIKLPWFWDAFKAARQ`
Response: -0.069

Query: GET /values?readout=amyloid nucleation score&item= `VICLTIYRIDECLVCLLYVA`
Response: -0.405

Query: GET /values?readout=amyloid nucleation score&item= `YSFRGWSSSVWVTGWCGRSA`
Response: 0.45

Query: GET /values?readout=amyloid nucleation score&item= `LFLLIIFLCTTYVVIKDPTH`
Response: 2.73

Query: GET /values?readout=amyloid nucleation score&item= `FVIVNN`
Response: -0.658

Query: GET /values?readout=amyloid nucleation score&item= `ANMCELVLLELVIELRGGLA`
Response: 3.28

Query: GET /values?readout=amyloid nucleation score&item= `PYFCDIMNGTCRYSLYGFSM`
Response: 0.37

Query: GET /values?readout=amyloid nucleation score&item= `HMMHSWAFL`
Response: 3.81

Query: GET /values?readout=amyloid nucleation score&item= `RYIVILSFVRGSWLYFLTRT`
Response: -0.543

Query: GET /values?readout=amyloid nucleation score&item= `YLDTHWIYY`
Response: 0.056

Query: GET /values?readout=amyloid nucleation score&item= `HQMRFPGSPMATVGSLRTCR`
Response: -0.528

Query: GET /values?readout=amyloid nucleation score&item= `YRLAFKMRNHGYQVELGLSV`
Response: -0.088

Query: GET /values?readout=amyloid nucleation score&item= `YHCPVSW`
Response: -0.254

Query: GET /values?readout=amyloid nucleation score&item= `RIFRYNDTVLCVLLGTNVGD`
Response: -0.418

Query: GET /values?readout=amyloid nucleation score&item= `APHGLRKHSIMVAGMLRSVG`
Response: 2.68

Query: GET /values?readout=amyloid nucleation score&item= `YKSDYSKLLCWKNYKFWLVC`
Response: -1.07

Query: GET /values?readout=amyloid nucleation score&item= `CFCPMLLLYIVRP`
Response: 7.48

Query: GET /values?readout=amyloid nucleation score&item= `REGVQVIQTGLVEYKLG`
Response: -0.029

Query: GET /values?readout=amyloid nucleation score&item= `YVRKVKA`
Response: 0.276

Query: GET /values?readout=amyloid nucleation score&item= `IMTHLVSTR`
Response: 1.5

Query: GET /values?readout=amyloid nucleation score&item= `MYTVGWHSTQCFLEDFGRTL`
Response: 3.13

Query: GET /values?readout=amyloid nucleation score&item= `YHYNNNRWVTGHFQWIWSLY`
Response: 6.45

Query: GET /values?readout=amyloid nucleation score&item= `DNCSLPSGTMGSDNSGGRIQ`
Response: -0.444

Query: GET /values?readout=amyloid nucleation score&item= `FYCWTTSDMFVRTSSIESP`
Response: 1.09

Query: GET /values?readout=amyloid nucleation score&item= `REAAVHRLIAWIGFRCRCQV`
Response: -0.317

Query: GET /values?readout=amyloid nucleation score&item= `SGSALLIEFRYSTSFREKRI`
Response: 5.69

Query: GET /values?readout=amyloid nucleation score&item= `NKNVSTGWYCVIESI`
Response: 1.26

Query: GET /values?readout=amyloid nucleation score&item= `TLSVTEGYSNLTSMWYGCKR`
Response: 3.23

Query: GET /values?readout=amyloid nucleation score&item= `SSMGIVGPYGWFSTSMVNIV`
Response: 0.895

Query: GET /values?readout=amyloid nucleation score&item= `LFPFRASRGPVPYKRDQ`
Response: 1.89

Query: GET /values?readout=amyloid nucleation score&item= `LVNDHGVSVVSCGTD`
Response: 0.053

Query: GET /values?readout=amyloid nucleation score&item= `MITDGGASVGLNYRYS`
Response: -0.524

Query: GET /values?readout=amyloid nucleation score&item= `GNFMTECLQARICGPDGEKK`
Response: 5.12

Query: GET /values?readout=amyloid nucleation score&item= `MGCCIYCYSRIDHL`
Response: 8.74

Query: GET /values?readout=amyloid nucleation score&item= `RVNCYYSFRS`
Response: 6.03

Query: GET /values?readout=amyloid nucleation score&item= `VFMCVGFLLYHMNSELGPRG`
Response: 2.88

Query: GET /values?readout=amyloid nucleation score&item= `IGRSMGRTFWR`
Response: 1.5

Query: GET /values?readout=amyloid nucleation score&item= `VPFGQTAVLSEGDSEVGGMK`
Response: -0.228
